- system tested: PLK1 (Homo sapiens, UniProt P53350)
- Construct: purchased Invitrogen (Paisley, UK)
- Sequence (P53350 whole entry): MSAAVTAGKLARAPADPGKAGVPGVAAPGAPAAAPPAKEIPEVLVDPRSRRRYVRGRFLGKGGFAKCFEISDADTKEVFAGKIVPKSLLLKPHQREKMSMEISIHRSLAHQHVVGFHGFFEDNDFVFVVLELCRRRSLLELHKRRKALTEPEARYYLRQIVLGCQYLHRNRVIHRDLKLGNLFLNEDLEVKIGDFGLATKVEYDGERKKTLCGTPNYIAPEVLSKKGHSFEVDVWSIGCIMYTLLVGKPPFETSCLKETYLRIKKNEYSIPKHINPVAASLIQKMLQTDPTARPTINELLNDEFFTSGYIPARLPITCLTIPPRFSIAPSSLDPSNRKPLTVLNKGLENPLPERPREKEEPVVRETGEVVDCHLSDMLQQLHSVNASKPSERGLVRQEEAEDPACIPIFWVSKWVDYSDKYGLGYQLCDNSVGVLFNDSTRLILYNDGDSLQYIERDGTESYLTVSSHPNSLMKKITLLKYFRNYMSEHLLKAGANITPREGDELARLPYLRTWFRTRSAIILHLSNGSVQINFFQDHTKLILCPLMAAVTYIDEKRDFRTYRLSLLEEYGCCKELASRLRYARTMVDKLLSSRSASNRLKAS
- assay notes: PLK1 enzyme assay (Z'-LYTE, Invitrogen)
- Format: biochemical
- settings: ATP at or close to Km; read-out: Inhibitor Activity vs PLK1
measurement label: IC50

Suppose we examine the molecule CC[C@@H]1C(=O)N(C)c2cnc(Nc3ccc(/C=C/C[C@H](N)C(=O)OC4CCCC4)cc3)nc2N1C1CCCC1 ; what IC50 value has been reported? < 100 nM

Same thing, different molecule: CC[C@@H]1C(=O)N(C)c2cnc(Nc3ccc(C(=O)NCCN4CCC(C[C@H](N)C(=O)OC5CCCC5)CC4)cc3OC)nc2N1C1CCCC1 < 100 nM

Could you do the same for CC[C@@H]1C(=O)N(C)c2cnc(Nc3ccc(C(=O)NCCN4CCNC(C(=O)O)C4)cc3OC)nc2N1C1CCCC1 (stereo partly drawn) , please? < 100 nM

Another: CC[C@@H]1C(=O)N(C)c2cnc(Nc3ccc(C(=O)NC4CCN(CCC[C@H](N)C(=O)OC(C)(C)C)CC4)cc3OC)nc2N1C1CCCC1 < 100 nM

Check CC[C@@H]1C(=O)N(C)c2cnc(Nc3ccc(OCC[C@H](N)C(=O)O)cc3OC)nc2N1C1CCCC1 too. < 100 nM

// query: CC[C@@H]1C(=O)N(C)c2cnc(Nc3ccc(C(=O)Nc4ccc(C[C@H](N)C(=O)O)cc4)cc3OC)nc2N1C1CCCC1 < 100 nM

* * *

- system tested: PLK1 (Homo sapiens, UniProt P53350)
- Construct: purchased Invitrogen (Paisley, UK)
- assay notes: PLK1 enzyme assay (Z'-LYTE, Invitrogen)
- Assay type: biochemical
- settings: ester (for Compound 1: the compound itself, one cell spans ester/acid); read-out: Inhibition of PLK (IC50, nM) ester
measurement label: IC50 (nM)
Quick reminder: number only, in nM, skip the unit.

What does the record list as IC50 for CC[C@@H]1C(=O)N(C)c2cnc(Nc3ccc(C(=O)NC4CCN(CC[C@H](N)C(=O)OC5CCCC5)CC4)cc3OC)nc2N1C1CCCC1 ? 6

* * *

- system tested: PLK1 (Homo sapiens)
- Construct: purchased Invitrogen (Paisley, UK)
- assay notes: PLK1 enzyme assay (Z'-LYTE, Invitrogen)
- Type: biochemical
- settings: ATP at or close to Km; read-out: Inhibitor Activity vs PLK1
pIC50: −log10 of the molar value.
For each record, write down the corresponding pIC50.

Given CC[C@@H]1C(=O)N(C)c2cnc(Nc3ccc(C(=O)NCc4ccc(OCC[C@H](N)C(=O)OC5CCCC5)cc4)cc3OC)nc2N1C1CCCC1 , state its recorded pIC50. 6.30 to 7.00

How about CC[C@@H]1C(=O)N(C)c2cnc(Nc3ccc(C(=O)NC4C5CN(CC[C@H](N)C(=O)O)CC54)cc3OC)nc2N1C1CCCC1 (stereo partly drawn) ? > 7.00

Query CC[C@@H]1C(=O)N(C)c2cnc(Nc3ccc(C(=O)N4CCNC(C(=O)O)C4)cc3OC)nc2N1C1CCCC1 (stereo partly drawn) [Example 52] next > 7.00

* * *

- system tested: PLK1 (Homo sapiens)
- Construct: purchased Invitrogen (Paisley, UK)
- assay notes: PLK1 enzyme assay (Z'-LYTE, Invitrogen)
- Format: biochemical
- settings: ATP at or close to Km; read-out: Inhibitor Activity vs PLK1
Give IC50 for every item shown.

What is its IC50 for PLK1 (Homo sapiens)? Entry: CC[C@@H]1C(=O)N(C)c2cnc(Nc3ccc(C(=O)NC4CCN(CC[C@H](N)C(=O)O)CC4)cc3OC)nc2N1C1CCCC1 [Example 53] < 100 nM

Another: CC[C@@H]1C(=O)N(C)c2cnc(Nc3ccc(C(=O)NC4CCN(CC[C@H](N)C(=O)OC(C)(C)C)CC4)cc3F)nc2N1C1CCCC1 [Example 29] < 100 nM

CC[C@@H]1C(=O)N(C)c2cnc(Nc3ccc(C(=O)NC4CCN(CCC[C@H](N)C(=O)OC5CCCC5)CC4)cc3OC)nc2N1C1CCCC1 [Example 24] ? < 100 nM

Try this compound next: CC[C@@H]1C(=O)N(C)c2cnc(Nc3ccc(C(=O)NC4CCN(CC[C@H](N)C(=O)OC5CCCC5)C4)cc3OC)nc2N1C1CCCC1 (stereo partly shown) [Example 16] < 100 nM
